- subjectOfTest: FAK (Homo sapiens, UniProt Q05397)
- Construct: endogenous in cells; host or cells: U87MG glioblastoma cells (ATCC HTB-14)
- Sequence (Q05397 whole entry): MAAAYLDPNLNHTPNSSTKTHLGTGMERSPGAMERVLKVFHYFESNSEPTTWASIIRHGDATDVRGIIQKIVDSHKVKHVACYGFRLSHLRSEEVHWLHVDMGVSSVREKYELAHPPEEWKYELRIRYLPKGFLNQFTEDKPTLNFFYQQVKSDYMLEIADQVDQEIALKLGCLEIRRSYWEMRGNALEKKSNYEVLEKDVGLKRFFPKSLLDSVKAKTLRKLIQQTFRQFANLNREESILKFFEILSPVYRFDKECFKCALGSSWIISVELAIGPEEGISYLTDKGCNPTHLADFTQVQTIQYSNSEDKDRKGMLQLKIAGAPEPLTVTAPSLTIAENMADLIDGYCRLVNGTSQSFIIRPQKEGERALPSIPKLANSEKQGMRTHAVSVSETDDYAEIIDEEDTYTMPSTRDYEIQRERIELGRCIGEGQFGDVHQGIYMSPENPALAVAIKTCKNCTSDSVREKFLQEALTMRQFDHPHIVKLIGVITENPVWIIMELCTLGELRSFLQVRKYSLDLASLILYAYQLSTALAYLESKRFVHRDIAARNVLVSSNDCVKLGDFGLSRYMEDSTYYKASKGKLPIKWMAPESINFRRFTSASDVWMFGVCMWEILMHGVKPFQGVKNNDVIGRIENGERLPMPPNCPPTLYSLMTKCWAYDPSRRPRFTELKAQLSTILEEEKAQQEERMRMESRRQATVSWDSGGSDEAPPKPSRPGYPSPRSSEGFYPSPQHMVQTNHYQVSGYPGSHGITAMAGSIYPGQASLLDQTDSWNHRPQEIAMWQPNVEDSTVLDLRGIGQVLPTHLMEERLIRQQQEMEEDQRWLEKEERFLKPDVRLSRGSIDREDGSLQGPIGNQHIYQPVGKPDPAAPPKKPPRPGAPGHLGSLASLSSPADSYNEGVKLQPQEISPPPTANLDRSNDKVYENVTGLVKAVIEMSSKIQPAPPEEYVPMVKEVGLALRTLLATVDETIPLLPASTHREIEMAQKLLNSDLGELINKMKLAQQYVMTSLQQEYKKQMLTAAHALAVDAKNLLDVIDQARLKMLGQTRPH
- methodNotes: Cell-based capture ELISA for inhibition of FAK autophosphorylation [pY397] in U87MG cells
- conditionSet: FAK Activity Mechanistic (U87MG) MP, 50% (v/v) mouse plasma, mean IC50
pIC50: −log10 of the molar value.
testReadout: pIC50

A selection of reference data follows.
Problem: # input compound: CCOP1(=O)Cc2ccc(c(OC)c2)Nc2ncc(C(F)(F)F)c(n2)Nc2ccc(nc2C(=O)NC)-c2cc(C(=O)O)n(c2)CCCO1 (racemic) [Example 39] ; wanted: its pIC50
Result: < 5.40

Problem: Entry CCOP1(=O)Cc2ccc(c(OC)c2)Nc2ncc(C(F)(F)F)c(n2)Nc2ccc(nc2C(=O)NC)-c2cc(C(=O)N3CC(C)(O)C3)n(c2)CCCO1 (racemic) [Example 40] : reported pIC50 = ?
Result: 5.40 to 6.40

Next:
Problem: Which pIC50 value belongs to CCOP1(=O)Cc2ccc(c(OC)c2)Nc2ncc(C(F)(F)F)c(n2)Nc2ccc(nc2C(=O)NC)-c2cc(C(=O)NC)n(c2)CCCO1 (racemic) [Example 42] ?
Result: 5.40 to 6.40

* * *

- subjectOfTest: FAK (Homo sapiens, UniProt Q05397)
- Construct: endogenous in cells; host or cells: U87MG glioblastoma cells (ATCC HTB-14)
- methodNotes: Cell-based capture ELISA for inhibition of FAK autophosphorylation [pY397] in U87MG cells
- conditionSet: 50% (v/v) human plasma, mean IC50, read-out: FAK Activity Mechanistic (U87MG) HP
pIC50: −log10 of the molar value.
testReadout: pIC50

Examples with answers:
Problem: Need pIC50 of CCOP1(=O)Cc2ccc(c(OC)c2)Nc2ncc(C(F)(F)F)c(n2)Nc2ccc(c3c2C(=O)N(C)C3)-c2cnn(c2)CCCCO1 (racemic) , thanks.
Result: > 6.40

Problem: # query: pIC50 of entry CCO[P@@]1(=O)Cc2ccc(c(OC)c2)Nc2ncc(C(F)(F)F)c(n2)Nc2cc(F)c(cc2C(=O)NC)-c2cnn(c2)CCCO1.CCO[P@]1(=O)Cc2ccc(c(OC)c2)Nc2ncc(C(F)(F)F)c(n2)Nc2cc(F)c(cc2C(=O)NC)-c2cnn(c2)CCCO1 (mixture of isomers)
Result: > 6.40

Problem: Fill blank: measured pIC50 of the compound CNC(=O)c1nc2ccc1Nc1nc(ncc1C(F)(F)F)Nc1ccc(cc1OC)CP(=O)(C(C)C)OCCCn1cc-2cn1 (single isomer, unassigned) [Example 68B] is ____.
Result: > 6.40

Problem: Recorded pIC50 of CCOP1(=O)Cc2ccc(cc2)Nc2ncc(C(F)(F)F)c(n2)Nc2ccc(c3c2C(=O)N(C)C3)-c2cnn(c2)CCCO1 (racemic) , please.
Result: > 6.40

Here's the next entry for you.
Problem: Using the record for CCOP1(=O)Cc2ccc(c(OC)c2)Nc2ncc(C(F)(F)F)c(n2)Nc2ccc(nc2C(=O)NC)-c2cn(nc2C)CCCO1 (single isomer, unassigned) [Example 34A] , report its pIC50.
Result: 5.40 to 6.40
